The measured values listed here are drawn from patent US11905253B2.

Assayed target: CD95/PLCγ1 interaction (SH3-PLCg1/CID-CD95) (Homo sapiens)
Construct: SH3—PLCγ1-F1 or DD-FADD-F1 (inset) was co-transfected into HEK293T cells
Sequence (P19174 791-851): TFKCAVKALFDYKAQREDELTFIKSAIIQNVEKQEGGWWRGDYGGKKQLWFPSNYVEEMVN
Protocol: Renilla luciferase protein-fragment complementation assay (PCA), SH3-PLCγ1-F1 / CID-CD95-F2
Run parameters: HEK293T cells, exposed 4 h, luminescence
In plain terms, low IC50, meaning strictly below 200 µM, gives 1, and everything else gives 0.

{"Molecule": "CC(O)CC(=O)NC(CS)C(=O)NCCN(C(=O)CCCCNC(=N)N)C(CCCCN)C(=O)NCCN(C(=O)CCc1c[nH]cn1)C(CCCNC(=N)N)C(=O)NCCNC(=O)CCCCCN (stereo not shown)", "Class label": 0}
{"Molecule": "CC(O)C(N)C(=O)NCCN(C(=O)CCS)C(CCCNC(=N)N)C(=O)NCCN(C(=O)CCCCCN)C(Cc1cnc[nH]1)C(=O)NCCN(C(=O)CCCCNC(=N)N)C(CCCCN)C(N)=O (stereo not shown)", "Class label": 1}
{"Molecule": "CCC(=O)N(CCN)C(CCCNC(=N)N)C(=O)NCCN(C(=O)CCCCCN)C(Cc1cnc[nH]1)C(=O)NCCN(C(=O)CCCCNC(=N)N)C(CCCCN)C(N)=O (stereo not shown)", "Class label": 1}
{"Molecule": "N=C(N)NCCCCC(=O)N(CCNC(=O)C(Cc1cnc[nH]1)N(CCNC(=O)C(Cc1c[nH]c2ccccc12)N(CCN)C(=O)CCS)C(=O)CCCCCN)C(CCCCN)C(N)=O (stereo not shown)", "Class label": 1}
{"Molecule": "N=C(N)NCCCCC(=O)N(CCNC(=O)C(Cc1cnc[nH]1)N(CCNC(=O)C(CCCNC(=N)N)N(CCN)C(=O)CCO)C(=O)CCCCCN)C(CCCCN)C(N)=O (stereo not shown)", "Class label": 1}
{"Molecule": "CC(O)CC(=O)N(CCN)C(CS)C(=O)NCCN(C(=O)CCCCNC(=N)N)C(CCCCN)C(=O)NCCN(C(=O)CCc1c[nH]cn1)C(CCCNC(=N)N)C(=O)NCCNC(=O)CCCCCN (stereo not shown)", "Class label": 0}
{"Molecule": "CCCCCCCCCCCCCCCCCC(=O)N(CCN)C(CCCNC(=N)N)C(=O)NCCN(C(=O)CCCCCN)C(Cc1cnc[nH]1)C(=O)NCCN(C(=O)CCCCNC(=N)N)C(CCCCN)C(N)=O (stereo not shown)", "Class label": 1}
{"Molecule": "N=C(N)NCCCC(C(=O)NCCN(C(=O)CCCCCN)C(Cc1cnc[nH]1)C(=O)NCCN(C(=O)CCc1ccc(N)cc1)C(CCCCN)C(N)=O)N(CCN)C(=O)CCS (stereo not shown)", "Class label": 0}
